Numbers sourced from PubChem BioAssay (NCATS).

# Tested on: HEK293
# PROTOCOL_NOTES: Cytotoxic Profiling of Annotated Libraries Using Quantitative High-Throughput Screening (AID 1296008); also: % is scaled to controls: 0 for no effect and ±100 for the full control effect; nearly all actives have a fitted effect of over 60% in size
# EXPERIMENTAL_CONTEXT: Five cell lines viability, CellTiter-Glo ATP luminescence, 48-72 h; stronger effect = lower value
Results filed as inconclusive are left out.
Catalogue of max response readings, one per entry.
QUANTITY_KIND: max response (%)

COMPOUND: CC1(C)C2CC=C(COC3OC(COC4OCC(O)(CO)C4O)C(O)C(O)C3O)C1C2 (stereo not drawn)
QUANTITY_KIND: max response
VALUE: -3.04
//
COMPOUND: C/C=C/C=C/[C@@H]1O[C@](O)([C@H](CC)C(=O)NC/C=C/C=C(\C)[C@@H](OC)[C@@H](C)C2OC(/C=C/C=C/C=C(\C)C(=O)c3c(O)cc[nH]c3=O)[C@H](O)[C@@H]2O)[C@H](O)[C@H](O)C1(C)C (stereo partly drawn)
QUANTITY_KIND: max response
VALUE: 1.43
//
COMPOUND: O=C(OC[C@H]1O[C@H](O[C@]2(CO)O[C@H](CO)[C@@H](O)[C@@H]2O)[C@H](O)[C@@H](O)[C@@H]1O)c1ccccc1
QUANTITY_KIND: max response
VALUE: 1.14

###

# PROTOCOL_NOTES: Confirmatory screen GU Rhodamine qHTS for Zika virus inhibitors qHTS (AID 1347157); also: nearly all actives have a fitted effect of over 70% in size
# EXPERIMENTAL_CONTEXT: purified enzyme assay, Rhodamine110 substrate fluorescence, 15 min; series mostly up to 114 µM
Results filed as inconclusive are left out. Calls of active or inactive are those of the source. Calls follow the shape of the dose curve; as a rule, active = well fitted inhibition curve with a large enough effect; inconclusive = small, poorly fitted or top-dose-only effect; inactive = flat fitted curve, though single readings scatter.
Outcomes: T (active), F (inactive)

SMILES_STR: OC/C=C/C=C/[C@H]1Cc2cc(O)cc(O)c2O1
LABEL_CLASS: T
//
SMILES_STR: CC(C)(C)Nc1nc2cc(Cl)c(Cl)cc2nc1S(C)(=O)=O
LABEL_CLASS: F
//
SMILES_STR: O=C(N/N=C/c1ccc(O)c(O)c1)c1cc2ccccc2cc1O
LABEL_CLASS: T
//
SMILES_STR: C#CCN(Cc1cc2c(=O)[nH]c(C)nc2cc1Br)c1ccc(C(=O)NCc2cccnc2)cc1
LABEL_CLASS: T
//
SMILES_STR: CC(C)c1cccc2c(-c3ccccc3)cc(-c3ccc(-c4ccc(C(=O)O)cc4)[nH]3)nc12
LABEL_CLASS: T

###

# PROTOCOL_NOTES: P-glycoprotein substrates identified in KB-8-5-11 adenocarcinoma cell line, qHTS therapeutic library screen (AID 1346987); also: nearly all actives have a fitted effect of over 65% in size
# EXPERIMENTAL_CONTEXT: KB-8-5-11 (P-gp overexpressing) viability, CellTiter-Glo, 72 h; series mostly up to 44.5 µM
Inconclusive results are not listed. The source made the active and inactive calls. The call rests on the fitted dose curve; in most records, active means well fitted inhibition curve with a large enough effect; inconclusive means small, poorly fitted or top-dose-only effect; inactive means flat fitted curve, though single readings scatter.
Outcome codes: active, inactive

MOLECULE: CC1(C)CC(=O)C2=C(C1)NC(=S)NC2c1cccc(O)c1 (stereo unspecified)
LABEL_CLASS: active
--
MOLECULE: COc1cc(C(=O)OC[C@@]2(O)CO[C@@H](O[C@H]3[C@H](Oc4ccc(C(=O)O)cc4OC)O[C@H](CO)[C@@H](O)[C@@H]3O)[C@@H]2O)ccc1O
LABEL_CLASS: inactive
--
MOLECULE: O=C(O[C@H]1[C@@H]2C[C@@H]3OC[C@](O)([C@@H]1Cl)[C@H]2C(O[C@@H]1O[C@H](CO)[C@@H](O)[C@H](O)[C@H]1O)O3)c1ccc(O)c(O)c1 (stereo partly specified)
LABEL_CLASS: inactive
--
MOLECULE: CCOC(=O)C(CCc1ccccc1)NC1CSC(c2cccs2)CN(CC(=O)O)C1=O (stereo unspecified)
LABEL_CLASS: inactive
--
MOLECULE: O=C(O)c1cc(I)ccc1NC(=O)[C@H](Cc1ccccc1)NCc1ccccc1
LABEL_CLASS: inactive
--
MOLECULE: COc1ccc(-c2cnc(-c3cccc4c3-c3ccccc3C4=O)o2)cc1
LABEL_CLASS: active
--
MOLECULE: CON(C)C(=O)[C@H](O)[C@H](Cc1ccccc1)NC(=O)c1cc2cc(Cl)ccc2[nH]1
LABEL_CLASS: inactive
--
MOLECULE: CC(C)N(CCCCOCC(=O)NS(C)(=O)=O)c1cnc(-c2ccccc2)c(-c2ccccc2)n1
LABEL_CLASS: inactive
--
MOLECULE: CC[C@@H](N)CNc1ccnc(-c2cc(-c3cnn(C)c3)ccc2O)n1
LABEL_CLASS: active
--
MOLECULE: C=C[C@H]1CN2CC[C@H]1C[C@@H]2C(O)c1ccnc2ccc(OC)cc12 (stereo partly specified)
LABEL_CLASS: inactive
--
MOLECULE: C=C1C(O)C(O)C2(CC3C(C)=CCC4C(C)(CO)CCCC34C)OC2C1O (stereo unspecified)
LABEL_CLASS: inactive
--
MOLECULE: CC1(C)CC[C@]2(C(=O)O)CC[C@]3(C)C(=CCC4[C@@]5(C)CC[C@H](O[C@@H]6O[C@H](C(=O)O)[C@@H](O[C@@H]7OC[C@@H](O)[C@H](O)[C@H]7O)[C@H](O)[C@H]6O)C(C)(C)C5CC[C@]43C)C2C1O (stereo partly specified)
LABEL_CLASS: inactive
--
MOLECULE: OCC(CO[C@@H]1O[C@H](CO)[C@@H](O)[C@H](O)[C@H]1O)c1ccc2c(c1)OCO2 (stereo partly specified)
LABEL_CLASS: inactive
--
MOLECULE: OC[C@H]1O[C@@H](O[C@H]2[C@H](OCCc3ccccc3)O[C@H](CO)[C@@H](O)[C@@H]2O)[C@H](O)[C@@H](O)[C@@H]1O
LABEL_CLASS: inactive
--
MOLECULE: Cc1cc(C)c(Nc2ccnc(Nc3ccc(C#N)cc3)n2)c(C)c1
LABEL_CLASS: active
--
MOLECULE: C=C1C(O)C[C@@H]2C(C(=O)O)=CO[C@@H](O[C@@H]3O[C@H](CO)[C@@H](O)[C@H](O)[C@H]3OC(=O)c3ccc(O)cc3)[C@H]12 (stereo partly specified)
LABEL_CLASS: inactive

###

# Test system: Zika virus NS2B-NS3 protease (linked)
# PROTOCOL_NOTES: 384 well plate NINDS AMC confirmatory qHTS for Zika virus inhibitors (AID 1347163); also: nearly all actives have a fitted effect of over 50% in size
# EXPERIMENTAL_CONTEXT: Recombinant NS2B-NS3 protease, Ac-VKTGKR-AMC fluorescence; series mostly up to 100 µM
Records with an inconclusive call do not appear. The source made the active and inactive calls. Calls follow the shape of the dose curve; as a rule, active = well fitted inhibition curve with a large enough effect; inconclusive = small, poorly fitted or top-dose-only effect; inactive = no such curve, though single readings can be large or run the other way.
Labels: label 1 = active, label 0 = inactive

MOLECULE: CC1(C)CCC(C)(C)c2cc(C3(c4ccc(C(=O)O)cc4)OCCO3)ccc21
LABEL_CLASS: label 0

MOLECULE: O=C(Nc1ccc(S(=O)(=O)Nc2nccs2)cc1)C(c1ccccc1)c1ccccc1
LABEL_CLASS: label 0

MOLECULE: CC(C)c1cccc2c(-c3ccccc3)cc(-c3ccc(-c4ccc(C(=O)O)cc4)[nH]3)nc12
LABEL_CLASS: label 0

MOLECULE: COc1ccc(C(=O)n2c(C)c(Cc3cccc(O[C@@H](C)C(=O)O)c3)c3cc(OC(F)(F)F)ccc32)cc1
LABEL_CLASS: label 1

MOLECULE: O=C(N/N=C/c1ccc(O)c(O)c1)c1cc2ccccc2cc1O
LABEL_CLASS: label 1

MOLECULE: COc1ccc(Cl)c(Nc2nc3ccccc3nc2NS(=O)(=O)c2cccc(NC(=O)C(C)(C)N)c2)c1
LABEL_CLASS: label 1

MOLECULE: COc1cc(Nc2nc3ccccc3nc2NS(=O)(=O)c2ccc(NC(=O)c3ccc(OC)c(C)c3)cc2)cc(OC)c1
LABEL_CLASS: label 0

MOLECULE: O=C(O)Cc1ccc2oc(-c3ccc(NC(=O)/C=C/c4ccc(Br)cc4)c(F)c3)nc2c1
LABEL_CLASS: label 0

MOLECULE: CC1(C)CC[C@]2(C(=O)O)CC[C@]3(C)C(=CCC4[C@@]5(C)C[C@@H](O)[C@H](O)C(C)(C)C5CC[C@]43C)C2C1 (stereo not given in full)
LABEL_CLASS: label 1

MOLECULE: CCCCCCOc1cc2c(cc1N(C)c1ncc(C(=O)O)cn1)C(C)(C)CCC2(C)C
LABEL_CLASS: label 1

###

# TARGET: Phenylethanolamine N-methyltransferase (Homo sapiens) (UniProt P11086)
# Sequence (P11086 whole entry, looked up): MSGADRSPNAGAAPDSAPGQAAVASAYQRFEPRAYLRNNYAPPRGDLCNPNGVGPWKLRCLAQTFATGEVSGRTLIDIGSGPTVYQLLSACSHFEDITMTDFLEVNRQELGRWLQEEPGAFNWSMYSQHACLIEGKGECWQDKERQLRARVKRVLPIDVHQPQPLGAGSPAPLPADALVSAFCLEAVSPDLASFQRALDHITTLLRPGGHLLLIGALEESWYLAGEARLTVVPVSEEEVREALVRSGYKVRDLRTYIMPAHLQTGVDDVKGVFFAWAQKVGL
# PROTOCOL_NOTES: Confirmatory Screen for Target Class Profiling of Small Molecule Inhibitors of Methyltransferases (AID 1745852)
# EXPERIMENTAL_CONTEXT: MTase-Glo luminescence, SAH detection, recombinant enzyme; measured here: PNMT max response; stronger effect = lower value
Listed here: items and their measured activity.

MOLECULE: Oc1ccc(CNc2ccccc2F)c2cccnc12
UNIT_ABBREVIATION: %
activity: 6.4

MOLECULE: Cc1cc(N(C)C)ccc1-c1nc2ccc(-c3nc4ccc(N5CCN(C)CC5)cc4[nH]3)cc2[nH]1
UNIT_ABBREVIATION: %
activity: -3.42

MOLECULE: CNC(=O)c1ccccc1Nc1nc(Nc2ccc(N3CCNCC3)cc2)ncc1Cl
UNIT_ABBREVIATION: %
activity: -30.9

MOLECULE: CN(c1ccccc1CNc1nc(Nc2ccc3c(c2)CC(=O)N3)ncc1C(F)(F)F)S(C)(=O)=O
UNIT_ABBREVIATION: %
activity: -5.42

MOLECULE: CC(=O)OC/C=C(\C)C(CC1C(C)=C(OC(C)=O)C(=O)C2C(C)(C)C(O)CCC12C)OC(C)=O (centres undefined)
UNIT_ABBREVIATION: %
activity: -0.876

MOLECULE: N#Cc1ccc(-c2cnc3[nH]cc(NC(=O)c4cccnc4)c3c2)cc1
UNIT_ABBREVIATION: %
activity: -6.92

MOLECULE: CNS(=O)(=O)CC1CCC(N(C)c2ncnc3[nH]ccc23)CC1 (centres undefined)
UNIT_ABBREVIATION: %
activity: -84.3

MOLECULE: C=C(C)C(=O)OC1CC2(C)OC(=CC2=O)C(=C)CC2OC(=O)C(COC)C12 (centres undefined)
UNIT_ABBREVIATION: %
activity: -4.08

MOLECULE: CCOC(=O)CCN(C(=O)c1ccc2c(c1)nc(CNc1ccc(C(=N)N)cc1)n2C)c1ccccn1
UNIT_ABBREVIATION: %
activity: 0.0478

MOLECULE: O=C1CSc2ccccc2N1Cc1cccc(C(F)(F)F)c1
UNIT_ABBREVIATION: %
activity: -11.4

MOLECULE: CCN1CCN(Cc2ccc(Nc3ncc(F)c(-c4cc(F)c5nc(C)n(C(C)C)c5c4)n3)nc2)CC1
UNIT_ABBREVIATION: %
activity: -75

MOLECULE: CCCNc1ccc2ncc(-c3ccc4[nH]ncc4c3)n2n1
UNIT_ABBREVIATION: %
activity: -45.4

MOLECULE: N#Cc1cnc2cnc(NCc3cccnc3)cc2c1Nc1ccc(F)c(Cl)c1
UNIT_ABBREVIATION: %
activity: -6.2

MOLECULE: Nc1nc(-n2cc(C(=O)O)c(=O)c3cc(F)c(N4CC(O)C4)c(Cl)c32)c(F)cc1F
UNIT_ABBREVIATION: %
activity: -1.85

MOLECULE: CCS(=O)(=O)N1CCN(c2ccc(Nc3ncc(C(N)=O)c(NC4CC4)n3)cc2)CC1
UNIT_ABBREVIATION: %
activity: -8.46

MOLECULE: COC(=O)C1=CO[C@@H](O[C@@H]2O[C@H](CO)[C@@H](O)[C@H](O)[C@H]2O)[C@H]2[C@@H]1CC(OC)O[C@@H]2C (some centres undefined)
UNIT_ABBREVIATION: %
activity: -2.32

MOLECULE: Cc1cc(Nc2ccc(NC(=O)c3ccc(Nc4ccnc5ccccc45)cc3)cc2)nc(N)n1
UNIT_ABBREVIATION: %
activity: -11.7

MOLECULE: Cc1cc(O)c(-c2ccc([C@@H](C)CN(C)C)cc2)c2c1[nH]c(=O)c1sccc12
UNIT_ABBREVIATION: %
activity: -48.7

MOLECULE: CC(C)c1nc(-c2ccc(NC(=O)Nc3cccc(C(F)(F)F)c3)c3ccccc23)c2c(N)nccn12
UNIT_ABBREVIATION: %
activity: -6.27
